- Assay method text: Stability in human plasma assessed as parent compound remaining after 4 hrs
- Assay type: ADME, cell-free
- Conditions used: read-out: Stability
Metric name: remaining at 4 h

Please supply the value of reported remaining at 4 h for the item CCCOc1cc2[nH]c(NC(=O)CC)nc2cc1F
> 99%

====

- Assay method text: Stability in mouse plasma assessed as parent compound remaining after 4 hrs
- Assay type: ADME, cell-free
- Conditions used: read-out: Stability
Metric name: remaining at 4 h

Tell me remaining at 4 h reported for CCCOc1cc2[nH]c(NC(=O)CC)nc2cc1F
95%

====

- Assay system: UniProt:Q12809
- Sequence (Q12809 whole entry): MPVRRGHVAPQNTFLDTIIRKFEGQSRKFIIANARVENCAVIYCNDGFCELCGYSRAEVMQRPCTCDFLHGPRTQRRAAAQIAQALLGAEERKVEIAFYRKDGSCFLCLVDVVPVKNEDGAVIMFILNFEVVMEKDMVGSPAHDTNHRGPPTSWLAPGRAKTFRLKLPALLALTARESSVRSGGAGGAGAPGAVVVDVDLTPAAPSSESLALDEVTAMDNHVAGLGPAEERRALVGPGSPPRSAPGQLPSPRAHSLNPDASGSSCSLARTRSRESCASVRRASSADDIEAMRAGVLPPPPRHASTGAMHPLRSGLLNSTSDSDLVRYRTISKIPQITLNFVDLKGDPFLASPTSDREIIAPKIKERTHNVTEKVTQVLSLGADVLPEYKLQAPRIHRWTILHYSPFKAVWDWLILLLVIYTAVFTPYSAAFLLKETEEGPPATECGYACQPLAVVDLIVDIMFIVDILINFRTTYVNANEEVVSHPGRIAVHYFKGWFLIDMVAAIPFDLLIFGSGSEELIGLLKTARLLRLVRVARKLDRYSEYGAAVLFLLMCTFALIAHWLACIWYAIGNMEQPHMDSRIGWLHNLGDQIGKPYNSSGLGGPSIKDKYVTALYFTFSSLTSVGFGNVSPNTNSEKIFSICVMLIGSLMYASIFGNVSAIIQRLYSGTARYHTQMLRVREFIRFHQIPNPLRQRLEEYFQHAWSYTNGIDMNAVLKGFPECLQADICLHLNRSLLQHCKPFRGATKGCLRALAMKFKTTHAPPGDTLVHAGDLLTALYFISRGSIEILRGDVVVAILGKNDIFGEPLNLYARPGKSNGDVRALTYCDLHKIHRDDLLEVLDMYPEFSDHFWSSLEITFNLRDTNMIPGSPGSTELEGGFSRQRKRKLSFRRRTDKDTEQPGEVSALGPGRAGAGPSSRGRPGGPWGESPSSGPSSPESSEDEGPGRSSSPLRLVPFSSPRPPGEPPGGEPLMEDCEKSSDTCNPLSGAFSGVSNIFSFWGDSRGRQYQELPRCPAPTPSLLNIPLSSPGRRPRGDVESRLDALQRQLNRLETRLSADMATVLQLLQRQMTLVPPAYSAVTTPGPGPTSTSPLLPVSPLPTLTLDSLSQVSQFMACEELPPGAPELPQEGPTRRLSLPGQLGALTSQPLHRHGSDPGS
- Assay method text: Inhibition of hERG at 10 uM relative to control
- Type: toxicity
Metric name: inhibition at 10 µM (%)
Numbers only here, please. The scale is %.

Note inhibition at 10 µM for the compound shown: CCCOc1cc2[nH]c(NC(=O)CC)nc2cc1F
29
